For each entry below, report its pIC50 value.
# tested_on: Polθ polymerase domain (amino acids 1792-2590) (Homo sapiens, UniProt O75417)
# Sequence (O75417 1792-2590): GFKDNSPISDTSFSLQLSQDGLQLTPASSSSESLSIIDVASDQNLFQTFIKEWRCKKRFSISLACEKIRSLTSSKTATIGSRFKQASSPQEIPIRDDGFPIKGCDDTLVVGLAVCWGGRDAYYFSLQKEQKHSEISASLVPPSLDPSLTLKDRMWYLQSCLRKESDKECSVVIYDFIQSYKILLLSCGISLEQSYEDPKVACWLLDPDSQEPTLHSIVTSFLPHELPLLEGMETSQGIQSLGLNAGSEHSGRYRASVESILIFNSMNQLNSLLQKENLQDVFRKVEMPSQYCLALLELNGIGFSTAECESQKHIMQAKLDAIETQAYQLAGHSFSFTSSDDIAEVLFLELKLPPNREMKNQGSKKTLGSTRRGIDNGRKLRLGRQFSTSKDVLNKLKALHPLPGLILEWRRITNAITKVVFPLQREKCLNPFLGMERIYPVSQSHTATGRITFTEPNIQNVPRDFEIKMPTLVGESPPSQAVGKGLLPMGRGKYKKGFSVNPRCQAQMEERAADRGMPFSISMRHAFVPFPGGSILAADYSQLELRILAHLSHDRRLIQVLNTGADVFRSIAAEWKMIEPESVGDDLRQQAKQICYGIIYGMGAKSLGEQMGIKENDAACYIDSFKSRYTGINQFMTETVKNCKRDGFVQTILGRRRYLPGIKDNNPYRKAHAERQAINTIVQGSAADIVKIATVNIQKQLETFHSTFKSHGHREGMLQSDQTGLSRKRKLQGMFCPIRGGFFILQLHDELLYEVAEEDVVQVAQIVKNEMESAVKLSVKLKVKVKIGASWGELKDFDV
pIC50: −log10 of the molar value.

INPUT: Consider the compound "Cc1cc(C(F)(F)F)cc(N2[C@H](C(=O)N(CC#Cc3cccc(N4CCOCC4)n3)c3ccc(F)c(C)c3)CCS2(=O)=O)n1" and give its recorded pIC50.
OUTPUT: 7.30 to 9.00

INPUT: Please list pIC50 recorded for the compound "Cc1cc(C(F)(F)F)cc(N2[C@H](C(=O)N(CC#Cc3ccc(C(N)=O)cn3)c3ccc(F)c(C)c3)CCS2(=O)=O)n1"
OUTPUT: 7.30 to 9.00

INPUT: Write down pIC50 measured for item "Cc1cc(C(F)(F)F)cc(N2[C@H](C(=O)N(CC#Cc3ncc(N4CCOCC4)nc3N)c3ccc(F)c(C)c3)CCS2(=O)=O)n1"
OUTPUT: 7.30 to 9.00

INPUT: Indicate the recorded pIC50 value for this compound: "Cc1cc(C(F)(F)F)cc(N2[C@H](C(=O)N(CC#Cc3ccc(Cc4cnc5ccc(=O)[nH]c5c4)nc3)c3ccc(F)c(C)c3)CCS2(=O)=O)n1"
OUTPUT: 7.30 to 9.00

INPUT: Answer with reported pIC50 of "Cc1cc(C(F)(F)F)cc(N2[C@H](C(=O)N(CC#Cc3ccc(N4CCOCC4)nn3)c3ccc(F)c(C)c3)CCS2(=O)=O)n1"
OUTPUT: 7.30 to 9.00

INPUT: Consider the compound "Cc1cc(C(F)(F)F)cc(N2C(=O)CC[C@H]2C(=O)N(CC#Cc2cnc(N)cn2)c2ccc(F)c(C)c2)n1" and give its recorded pIC50.
OUTPUT: 7.30 to 9.00

INPUT: Report measured pIC50; entry is "Cc1cc(C(F)(F)F)cc(N2[C@H](C(=O)N(CC#Cc3cnc(N4CCOCC4)c(N)n3)c3ccc(F)c(C)c3)CCS2(=O)=O)n1"
OUTPUT: 7.30 to 9.00

INPUT: Note pIC50 for the compound shown: "Cc1cc(C(F)(F)F)cc(N2[C@H](C(=O)N(CC#Cc3cnc(C(N)=O)c(F)c3)c3ccc(F)c(C)c3)CCS2(=O)=O)n1"
OUTPUT: 7.30 to 9.00

INPUT: Give the reported value of pIC50 for this record: "Cc1cc(C(F)(F)F)cc(N2C(=O)CC[C@H]2C(=O)N(CC#Cc2ccc(N)nn2)c2ccc(F)c(Cl)c2)n1"
OUTPUT: 7.30 to 9.00

INPUT: Item "Cc1cc(C(F)(F)F)cc(N2[C@H](C(=O)N(CC#Cc3ccc(-c4ncon4)nc3)c3ccc(F)c(C)c3)CCS2(=O)=O)n1" : provide pIC50
OUTPUT: 7.30 to 9.00

INPUT: Name the recorded pIC50 of the compound listed here: "Cc1cc(C(F)(F)F)cc(N2[C@H](C(=O)N(CC#Cc3ccc(C(N)=O)nc3)c3ccc(F)c(C)c3)CC3(CC3)S2(=O)=O)n1"
OUTPUT: 7.30 to 9.00

INPUT: Report pIC50, nothing else, for this compound: "Cc1cc(C(F)(F)F)cc(N2[C@H](C(=O)N(CC#Cc3ncc(C(N)=O)nc3C)c3ccc(F)c(C)c3)CCS2(=O)=O)n1"
OUTPUT: 7.30 to 9.00

INPUT: Using the record for "Cc1cc(C(F)(F)F)cc(N2[C@H](C(=O)N(CC#Cc3ncc(C(N)=O)nn3)c3ccc(F)c(C)c3)CCS2(=O)=O)n1" , state its measured pIC50.
OUTPUT: 7.30 to 9.00
